meta.source: paper PMC9090415

- MEASUREMENT TARGET: P. falciparum apicoplast DNA polymerase (Pf-apPOL) (Plasmodium falciparum)
- Sequence (Q8ILY1 entry or part of it): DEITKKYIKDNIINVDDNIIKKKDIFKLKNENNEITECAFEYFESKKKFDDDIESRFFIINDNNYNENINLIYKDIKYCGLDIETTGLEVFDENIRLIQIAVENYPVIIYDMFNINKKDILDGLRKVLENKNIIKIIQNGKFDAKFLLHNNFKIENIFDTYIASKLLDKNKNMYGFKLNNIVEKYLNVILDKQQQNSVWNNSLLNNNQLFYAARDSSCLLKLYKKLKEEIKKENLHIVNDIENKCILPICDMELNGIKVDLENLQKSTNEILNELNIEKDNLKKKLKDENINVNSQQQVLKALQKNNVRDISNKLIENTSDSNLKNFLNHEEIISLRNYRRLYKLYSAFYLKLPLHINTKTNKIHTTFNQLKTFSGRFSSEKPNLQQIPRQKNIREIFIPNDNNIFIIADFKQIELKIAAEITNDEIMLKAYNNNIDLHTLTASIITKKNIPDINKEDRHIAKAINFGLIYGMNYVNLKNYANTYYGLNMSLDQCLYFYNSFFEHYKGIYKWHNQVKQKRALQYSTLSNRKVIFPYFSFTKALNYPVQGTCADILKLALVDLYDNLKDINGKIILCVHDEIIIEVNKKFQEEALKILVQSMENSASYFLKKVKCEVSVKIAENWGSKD
- METHOD NOTES: Fluorescence-based high-throughput DNA polymerase assay (molecular beacon), primary screen and dose-response;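 for % inhibition Apol 40': compound concentration given in µM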
- Type: biochemical
- RUN PARAMETERS: conc. 10; 40'; DRC-2
MEASURED QUANTITY: % inhibition Apol 40' (%)
# unit: % | format: bare number

# count of solved cases: 3
>  <MOLECULE>
O=C(O)c1cccc(N2N=C(C(F)(F)F)/C(=C/c3ccc(-c4ccccc4[N+](=O)[O-])o3)C2=O)c1 [Molecule 100]

>  <MEASUREMENT TARGET>
P. falciparum apicoplast DNA polymerase (Pf-apPOL) (Plasmodium falciparum)

>  <% inhibition Apol 40' (%)>
51

$$$$
>  <MOLECULE>
O=C(CSc1nnc(-c2ccncc2)[nH]1)c1ccc(O)c(O)c1 [Molecule 89]

>  <MEASUREMENT TARGET>
P. falciparum apicoplast DNA polymerase (Pf-apPOL) (Plasmodium falciparum)

>  <% inhibition Apol 40' (%)>
68

$$$$
>  <MOLECULE>
O=C(Nc1cccc(Cl)c1)Nc1nnc(-c2ccncc2)s1 [KU0022348]

>  <MEASUREMENT TARGET>
P. falciparum apicoplast DNA polymerase (Pf-apPOL) (Plasmodium falciparum)

>  <% inhibition Apol 40' (%)>
64

$$$$

Now look at this one.
Entry O=C(CSc1nc2ccccc2s1)Nc1ncc([N+](=O)[O-])s1 [KU0019667] — recorded % inhibition Apol 40' = -13

###

- MEASUREMENT TARGET: P. falciparum apicoplast DNA polymerase (Pf-apPOL) (Plasmodium falciparum)
- METHOD NOTES: Fluorescence-based high-throughput DNA polymerase assay (molecular beacon), primary screen and dose-response;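 for % inhibition ApPOL 90': test concentration in µM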
- Assay type: biochemical
- RUN PARAMETERS: DRC-2; 90'; concentration 20
MEASURED QUANTITY: % inhibition ApPOL 90'
// unit must come after the numeric part

>  <MOLECULE>
CCCCCCCCCCCCCCCCCC(=O)CCN(C)C

>  <% inhibition ApPOL 90'>
12%

$$$$
>  <MOLECULE>
O=C1NCCCn2cc(S(=O)(=O)Nc3ccccc3)cc21

>  <% inhibition ApPOL 90'>
44%

$$$$
>  <MOLECULE>
O=C(Cn1ccc2c(=O)[nH]ccc21)Nc1cc(F)ccc1F [Molecule 42, O=C(Cn1ccc2c1cc[nH]c2=O)Nc1cc(F)ccc1F]

>  <% inhibition ApPOL 90'>
54%

$$$$

Entry `O=C(c1ccccc1)N1CCc2c(nc3cc(-c4ccccc4)[nH]n3c2=O)C1` — recorded % inhibition ApPOL 90' = 60%

Entry `O=C1c2ccccc2C(=O)c2c1oc1c3c(ccc21)OCN(C1CCCC1)C3` — recorded % inhibition ApPOL 90' = 60%

Entry `Cc1ccnc(NS(=O)(=O)c2ccc(-n3cccc3)cc2)n1` — recorded % inhibition ApPOL 90' = 59%

Entry CCCCCCCCCCCC1SCC(C(=O)O)N1C(C)=O (stereo not drawn) — recorded % inhibition ApPOL 90' = 43%

Entry `O=C(Cc1cc(=O)[nH]c(SCc2ccccc2)n1)Nc1ccc2c(c1)OCO2` — recorded % inhibition ApPOL 90' = 49%

Entry CC(C)CC(C(=O)O)N1C(=O)C2C3C=CC(C2C1=O)C1C(=O)N(C(CC(C)C)C(=O)O)C(=O)C31 (stereo not drawn) — recorded % inhibition ApPOL 90' = 20%
